// 50% inhibition LPS lookup, one value per entry
# Tested on: human peripheral blood mononuclear cells
# assay method text: inhibition of E. coli LPS-induced α TNF production in human peripheral blood mononuclear cells
# Assay type: cell-based
# test context: product 10 μg/ml; LPS concentration at which α TNF production is 50% of control
Reply with just the number (in µg/mL).

CCCCCCCCCCCC(=O)O[C@H](CCCCCCCCCCC)CC(=O)N[C@H](CC(=O)O)C(=O)NCCC[C@H](COC(=O)CCCCCNC(=O)CCC(=O)OC[C@H]1O[C@@H](n2cc(C)c(=O)[nH]c2=O)C[C@@H]1N=[N+]=[N-])NC(=O)C[C@H](O)CCCCCCCCCCC :: 0.45
CCCCCCCCCCCC(=O)O[C@H](CCCCCCCCCCC)CC(=O)N[C@H](CC(=O)N[C@@H](CC(=O)O)C(=O)O)C(=O)NCCC[C@H](COC(=O)CCCCCN)NC(=O)C[C@H](O)CCCCCCCCCCC :: 0.29

// next entry
Supply measured 50% inhibition LPS of "CCCCCCCCCCC[C@@H](O)CC(=O)N[C@H](CCCNC(=O)[C@@H](CC(=O)O)NC(C)=O)COC(=O)CCCCCN" in your reply.
0.0003

----------
// Max concentration lookup, one value per entry
# Tested on: bone marrow stem cells
# assay method text: bone marrow stem cell proliferation (XTT)
# Assay type: cell-based, C57/BL6 mice
# test context: concentration at maximum amplitude
Reply with just the number (in µg/mL).

Consider the reported Max concentration for these compounds:
CCCCCCCCCCC[C@@H](O)CC(=O)N[C@H](CCCNC(=O)[C@@H](CC(=O)O)NC(C)=O)COC(=O)CCCCCN :: 1.56
CCCCCCCCCCCC(=O)O[C@H](CCCCCCCCCCC)CC(=O)NC(CCOP(=O)(O)O)C(=O)NCCC[C@H](COC(=O)CCCCCN)NC(=O)C[C@H](O)CCCCCCCCCCC (mixture of isomers) [OM-197-MP-AC (R/S, R)] :: 25

// next entry
Supply measured Max concentration of "CCCCCCCCCCCC(=O)O[C@H](CCCCCCCCCCC)CC(=O)N[C@H](CC(=O)O)C(=O)NCCC[C@H](CO)NC(=O)C[C@H](O)CCCCCCCCCCC" in your reply.
64

----------
# Tested on: bone marrow stem cells
# assay method text: bone marrow stem cell proliferation (XTT)
# Assay type: cell-based, C57/BL6 mice
# test context: concentration at maximum amplitude
measurement name: Max concentration (µg/mL)
Reply with just the number (in µg/mL).

CCCCCCCCCCCC(=O)O[C@H](CCCCCCCCCCC)CC(=O)N[C@H](CC(=O)NCCCN)C(=O)NCCC[C@H](CO)NC(=O)C[C@H](O)CCCCCCCCCCC [OM-197-AP] :: 25
CCCCCCCCCCCC(=O)O[C@H](CCCCCCCCCCC)CC(=O)N[C@H](CC(=O)N[C@@H](CC(=O)O)C(=O)O)C(=O)NCCC[C@H](COC(=O)CCCCCN)NC(=O)C[C@H](O)CCCCCCCCCCC [OM-197-Asp-AC] :: 50
CCCCCCCCCCCC(=O)O[C@H](CCCCCCCCCCC)CC(=O)N[C@H](CC(=O)N[C@@H](CC(=O)O)C(=O)O)C(=O)NCCC[C@H](CO)NC(=O)C[C@H](O)CCCCCCCCCCC [OM-197-Asp] :: 25

// next entry
Supply measured Max concentration of CCCCCCCCCCCC(=O)O[C@H](CCCCCCCCCCC)CC(=O)N[C@H](CC(=O)O)C(=O)NCCC[C@H](COC(=O)CCCCC(O)CO)NC(=O)C[C@H](O)CCCCCCCCCCC (some centres unmarked) [OM-197-MC-FV5] in your reply.
50

----------
# Tested on: murine macrophage cells
# assay method text: nitric oxide production by murine macrophage cells (Griess)
# Assay type: cell-based, C57/BL6 mice
# test context: lowest concentration inducing a significant response
// log10 Min concentration lookup, one value per entry
Field: value | Transform: log10 | Quantity: Min concentration | Unit: µg/mL

Supply measured log10 Min concentration of CCCCCCCCCCCC(=O)O[C@H](CCCCCCCCCCC)CC(=O)N[C@H](CC(=O)N[C@@H](CC(=O)O)C(=O)O)C(=O)NCCC[C@H](COC(=O)CCCCCN)NC(=O)C[C@H](O)CCCCCCCCCCC [OM-197-Asp-AC] in your reply.
0.30

Supply measured log10 Min concentration of CCCCCCCCCCCC(=O)O[C@H](CCCCCCCCCCC)CC(=O)N[C@H](CC(=O)N[C@@H](CC(=O)O)C(=O)O)C(=O)NCCC[C@H](CO)NC(=O)C[C@H](O)CCCCCCCCCCC [OM-197-Asp] in your reply.
-1.07

Supply measured log10 Min concentration of CCCCCCCCCCCC(=O)O[C@H](CCCCCCCCCCC)CC(=O)N[C@H](CC(=O)O)C(=O)NCCC[C@H](CO)NC(=O)C[C@H](O)CCCCCCCCCCC [OM-197-MC] in your reply.
-0.82

Supply measured log10 Min concentration of CCCCCCCCCCCC(=O)O[C@H](CCCCCCCCCCC)CC(=O)N[C@H](CC(=O)N[C@@H](CCCCN)C(=O)O)C(=O)NCCC[C@H](COC(=O)CCCCCN)NC(=O)C[C@H](O)CCCCCCCCCCC [OM-197-Lys-AC] in your reply.
0.16

----------
// Max amplitude lookup, one value per entry
# Tested on: bone marrow stem cells
# assay method text: bone marrow stem cell proliferation (XTT)
# Type: cell-based, C57/BL6 mice
# test context: 7 days, XTT 492 nm
Reply with just the number (in O.D).

Tell me its Max amplitude on bone marrow stem cells: CCCCCCCCCCC[C@@H](O)CC(=O)N[C@H](CCCNC(=O)[C@@H](CC(=O)O)NC(=O)C(CCCCCC)OC(=O)CCCCCCCCC)COC(=O)CCCCCN (some centres unmarked) [OM-197-N′(C10-20C8)-MC-AC]
0.75

Tell me its Max amplitude on bone marrow stem cells: CCCCCCCCCCC[C@@H](O)CC(=O)N[C@H](CCCNC(=O)[C@@H](CC(=O)O)NC(C)=O)COC(=O)CCCCCN [OM-197-N′C2-MC-AC]
0.75

----------
# Test system: bone marrow stem cells
# assay method text: bone marrow stem cell proliferation (XTT)
# Type: cell-based, C57/BL6 mice
# test context: lowest concentration inducing a significant proliferation
measurement name: Min concentration (µg/mL)
Reply with just the number (in µg/mL).

CCCCCCCCCCCC(=O)O[C@H](CCCCCCCCCCC)CC(=O)N[C@H](CC(=O)O)C(=O)NCCC[C@H](COC(=O)CCCCCN)NC(=O)C[C@H](O)CCCCCCCCCCC :: 0.92
CCCCCCCCCCCC(=O)O[C@H](CCCCCCCCCCC)CC(=O)N[C@H](CC(=O)O)C(=O)NCCC[C@H](COC(=O)CCCCCNC(=O)CCC(=O)OC[C@@H]1C=C[C@H](n2cc(C)c(=O)[nH]c2=O)O1)NC(=O)C[C@H](O)CCCCCCCCCCC :: 2.81

// next entry
Supply measured Min concentration of "CCCCCCCCCCCC(=O)O[C@H](CCCCCCCCCCC)CC(=O)N[C@H](CC(=O)N[C@@H](CCCCN)C(=O)O)C(=O)NCCC[C@H](COC(=O)CCCCCN)NC(=O)C[C@H](O)CCCCCCCCCCC" in your reply.
0.90

----------
// 50% inhibition LPS lookup, one value per entry
# Tested on: human peripheral blood mononuclear cells
# assay method text: inhibition of E. coli LPS-induced α TNF production in human peripheral blood mononuclear cells
# Format: cell-based
# test context: product 10 μg/ml; LPS concentration at which α TNF production is 50% of control

Consider the reported 50% inhibition LPS for these compounds:
CCCCCCCCCCCC(=O)O[C@H](CCCCCCCCCCC)CC(=O)NC(CCOP(=O)(O)O)C(=O)NCCC[C@H](COC(=O)CCCCCN)NC(=O)C[C@H](O)CCCCCCCCCCC (mixture of isomers) [OM-197-MP-AC (R/S, R)] :: >1 µg/mL
CCCCCCCCCCCC(=O)O[C@H](CCCCCCCCCCC)CC(=O)N[C@H](CC(=O)N[C@@H](CC(=O)O)C(=O)O)C(=O)NCCC[C@H](CO)NC(=O)C[C@H](O)CCCCCCCCCCC :: >1 µg/mL
CCCCCCCCCCCC(=O)O[C@H](CCCCCCCCCCC)CC(=O)N[C@H](CC(=O)O)C(=O)NCCC[C@H](COC(=O)CCCCC(O)CO)NC(=O)C[C@H](O)CCCCCCCCCCC (stereo partly shown) :: >1 µg/mL

// next entry
Supply measured 50% inhibition LPS of "CCCCCCCCCCCC(=O)O[C@H](CCCCCCCCCCC)CC(=O)N[C@H](CC(=O)NCCCN)C(=O)NCCC[C@H](CO)NC(=O)C[C@H](O)CCCCCCCCCCC" in your reply.
>1 µg/mL

Values were extracted from patent US8173133B2.
